# System: 422866-222-R5-J1-PDC spheroid viability;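 also: spheroids exposed to agents for seven days before readout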
# PROTOCOL_DETAILS: Anticancer human tumor 422866-222-R5-J1-PDC patient-derived pancreatic adenocarcinoma cell line growth inhibition [CLK]
# STUDY_CONDITIONS: second compound 3.16 µM; first compound 0.0316 µM; hits give low values; spheroids with HUVEC and MSC
Response field label takes True when viability, T/C is strictly below 7% and False in all other cases.

These recorded examples may help you get a feel for the data.
COMPOUND	ASSIGNED_LABEL
C=C(F)C(=O)N1CCN(c2nc(OCC3CCCN3C)nc3c2CCN(c2cccc4cccc(Cl)c24)C3)CC1CC#N (stereo not given) + CN1CCN(c2cc(C(=O)Nc3cc4cc(-c5cnn(C)c5)ccc4cn3)ccn2)CC1	True
CC(=O)O[C@H]1C(=O)[C@@]2(C)[C@H]([C@H](OC(=O)c3ccccc3)[C@]3(O)C[C@H](OC(=O)[C@H](O)[C@@H](NC(=O)c4ccccc4)c4ccccc4)C(C)=C1C3(C)C)[C@]1(OC(C)=O)CO[C@@H]1C[C@@H]2O + CN1CCN(c2cc(C(=O)Nc3cc4cc(-c5cnn(C)c5)ccc4cn3)ccn2)CC1	True
CC(CO)NC(=O)c1cc(-c2ccc(Cl)cc2)nn(-c2cnn(C)c2)c1=O (stereo not given) + CNC(=O)c1ccc(Nc2nc(OC3CCCC3)c3c(-c4ccc5nc(C)oc5c4)c[nH]c3n2)c(OC)c1	False
Nc1ccccc1NC(=O)c1ccc(CNC(=O)OCc2cccnc2)cc1 + CNC(=O)c1ccc(Nc2nc(OC3CCCC3)c3c(-c4ccc5nc(C)oc5c4)c[nH]c3n2)c(OC)c1	False

Ask: Is the reported viability, T/C for CC(Nc1ccc2c(c1)OCCn1cc(N3C(=O)OCC3C(F)F)nc1-2)C(N)=O (stereo not given) + CNC(=O)c1ccc(Nc2nc(OC3CCCC3)c3c(-c4ccc5nc(C)oc5c4)c[nH]c3n2)c(OC)c1 strictly below 7%?
Result: False
